Target: PBP2 (Escherichia coli)
Construct: using bacterial membranes as the source of PBPs; endogenous in cells; host or cells: E. coli MC4100 membrane preparation
Experiment: Membrane PBP binding assay, competition with Bocillin FL
Design: species or system E. coli MC4100
Settings: E. coli MC4100 membranes; read-out: IC50 PBP2
Method: Membrane extracts containing PBPs were obtained as described above. Briefly, all species were grown in 1 L of TSB until the OD600 reached 0.9. The washed pellet was incubated with lysozyme (400 μg/mL), DNase (10 μg/mL) RNase(10 μg/mL) and anti-protease cocktail (200 mg/20 mL). […] The protein concentration in the membrane preparations was determined with the Micro BCA TM Protein Assay Kit (Thermo Fisher Scientific, Rockford, IL) using bovine serum albumin as a standard. […]
Measurement label: IC50 (µM)

[[record]]
molecule = "N[C@@H](C(=O)N[C@@H]1C(=O)N2C(C(=O)O)=C(Cl)CC[C@H]12)c1ccccc1 [LOR, loracarbef, reference compound]"
measurement_units = "µM"
comparator = ">"
val = 50

[[record]]
molecule = "CC1(C)S[C@@H]2[C@H](NC(=O)[C@H](N)c3ccccc3)C(=O)N2[C@H]1C(=O)O [AMP, ampicillin, reference compound]"
measurement_units = "µM"
comparator = "="
val = 11.4

[[record]]
molecule = "CC1(C)SC2C(NC(=O)C(NC(=O)CN(CCCCNC(=O)c3cccc(O)c3O)C(=O)c3cccc(O)c3O)c3ccccc3)C(=O)N2C1C(=O)O (stereo not shown)"
measurement_units = "µM"
comparator = "="
val = 2.26

[[record]]
molecule = "O=C(CN(CCCCNC(=O)c1cccc(O)c1O)C(=O)c1cccc(O)c1O)NC(C(=O)NC1C(=O)N2C(C(=O)O)=C(Cl)CCC12)c1ccccc1 (stereo not shown)"
measurement_units = "µM"
comparator = ">"
val = 50


###

target: OXA-98 (Acinetobacter baumannii, UniProt D0C7W4)
Sequence (D0C7W4 entry or part of it): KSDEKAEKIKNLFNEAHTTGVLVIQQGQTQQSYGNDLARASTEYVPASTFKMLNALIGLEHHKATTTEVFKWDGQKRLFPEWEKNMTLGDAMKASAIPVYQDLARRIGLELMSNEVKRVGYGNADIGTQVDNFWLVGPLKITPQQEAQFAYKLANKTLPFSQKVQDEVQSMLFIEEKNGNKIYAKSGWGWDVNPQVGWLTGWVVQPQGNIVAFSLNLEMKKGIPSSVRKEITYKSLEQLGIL
pKi: −log10 of the molar value.
Measurement label: pKi

[[record]]
compound = "CC1(C)SC2C(NC(=O)C(NC(=O)CN(CCCCNC(=O)c3cccc(O)c3O)C(=O)c3cccc(O)c3O)c3ccccc3)C(=O)N2C1C(=O)O (stereo not shown)"
measurement_label = "pKi"
val = 3.30


###

molecular target: PBP1a (Pseudomonas aeruginosa); construct: using bacterial membranes as the source of PBPs; endogenous in cells; host or cells: P. aeruginosa ATCC 27853 membrane preparation; test: Membrane PBP binding assay, competition with Bocillin FL; details: P. aeruginosa ATCC 27853 membranes; read-out: IC50 PBP1a
Sequence (Q07806 whole entry): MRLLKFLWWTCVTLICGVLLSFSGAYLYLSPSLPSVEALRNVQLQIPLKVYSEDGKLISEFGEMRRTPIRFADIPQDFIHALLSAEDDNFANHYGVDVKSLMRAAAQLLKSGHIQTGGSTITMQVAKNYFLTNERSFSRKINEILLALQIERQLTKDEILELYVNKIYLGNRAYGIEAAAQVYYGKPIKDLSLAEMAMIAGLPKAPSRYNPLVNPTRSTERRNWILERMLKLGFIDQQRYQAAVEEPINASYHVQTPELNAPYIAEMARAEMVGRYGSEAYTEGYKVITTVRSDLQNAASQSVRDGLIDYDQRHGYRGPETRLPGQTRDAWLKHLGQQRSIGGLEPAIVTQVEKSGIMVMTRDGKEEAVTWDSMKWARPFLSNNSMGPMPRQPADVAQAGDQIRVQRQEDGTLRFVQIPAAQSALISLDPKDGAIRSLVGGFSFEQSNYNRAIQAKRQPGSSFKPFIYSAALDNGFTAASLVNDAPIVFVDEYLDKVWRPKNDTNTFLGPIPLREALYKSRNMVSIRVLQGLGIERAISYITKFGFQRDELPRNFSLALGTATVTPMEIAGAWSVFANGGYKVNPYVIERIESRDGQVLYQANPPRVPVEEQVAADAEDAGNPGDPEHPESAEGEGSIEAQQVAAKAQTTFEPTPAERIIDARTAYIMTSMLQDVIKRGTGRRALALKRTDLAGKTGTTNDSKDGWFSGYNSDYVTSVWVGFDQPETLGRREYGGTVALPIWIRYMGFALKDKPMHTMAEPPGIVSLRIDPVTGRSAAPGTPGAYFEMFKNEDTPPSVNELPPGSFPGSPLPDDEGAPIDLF
Measurement label: IC50

[[record]]
compound = "O=C(CCC(=O)N(CCCCNC(=O)c1cccc(O)c1O)CCCNC(=O)c1cccc(O)c1O)NCCCCCN(O)C(=O)CCCC(=O)NC(C(=O)NC1C(=O)N2C(C(=O)O)=C(Cl)CSC12)c1ccccc1 (centres unmarked)"
val = "0.39 µM"

[[record]]
compound = "N[C@@H](C(=O)N[C@@H]1C(=O)N2C(C(=O)O)=C(Cl)CC[C@H]12)c1ccccc1 [LOR, loracarbef, reference compound]"
val = "> 50 µM"

[[record]]
compound = "O=C(CN(CCCCNC(=O)c1cccc(O)c1O)C(=O)c1cccc(O)c1O)NC(C(=O)NC1C(=O)N2C(C(=O)O)=C(Cl)CCC12)c1ccccc1 (centres unmarked)"
val = "0.58 µM"

[[record]]
compound = "CC1(C)SC2C(NC(=O)C(NC(=O)CN(CCCCNC(=O)c3cccc(O)c3O)C(=O)c3cccc(O)c3O)c3ccccc3)C(=O)N2C1C(=O)O (centres unmarked)"
val = "1.4 µM"

[[record]]
compound = "N[C@@H](C(=O)N[C@@H]1C(=O)N2C(C(=O)O)=C(Cl)CS[C@H]12)c1ccccc1 [CEF, cefaclor, reference compound]"
val = "33.9 µM"


This collection of values is drawn from paper PMC12592502.
